- Assayed target: T1, GLP-1 receptor (endogenous, RINm5F cell membranes; rat thyroid carcinoma 6-23 clone 6 cells) (rat, UniProt P32301 22-463)
- T1 sequence (looked up): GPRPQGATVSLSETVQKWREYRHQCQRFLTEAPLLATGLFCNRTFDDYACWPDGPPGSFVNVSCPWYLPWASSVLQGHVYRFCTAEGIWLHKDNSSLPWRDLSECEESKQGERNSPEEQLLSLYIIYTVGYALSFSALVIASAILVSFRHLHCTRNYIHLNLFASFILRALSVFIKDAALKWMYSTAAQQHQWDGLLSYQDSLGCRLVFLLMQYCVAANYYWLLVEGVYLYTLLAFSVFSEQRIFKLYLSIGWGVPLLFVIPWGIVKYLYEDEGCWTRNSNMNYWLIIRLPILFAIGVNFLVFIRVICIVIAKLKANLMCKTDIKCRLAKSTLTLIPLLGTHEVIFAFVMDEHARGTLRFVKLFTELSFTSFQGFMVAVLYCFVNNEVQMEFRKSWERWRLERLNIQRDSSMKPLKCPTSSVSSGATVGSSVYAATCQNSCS
- Assay method text: cell-based or functional assay
Where no end group is shown, it is not given here.
Value kind: GLP-1 cAMP (6-23) EC50

binder="HAEGTYTNDVTEYLEEKAAKEFIEWLIPKKIRYS (also called nmGLP-1 analog) [SEQ ID NO 32]" reported_value="8.3 nM"
binder="HXEGTYTNDVTQFLEEKAAKEFIDWLIKGKPKKQRLS (Abu (2-Aminobutyric acid) at position 2) [SEQ ID NO 53]" reported_value="0.12 nM"
binder="HXEGTYTNDVTEYLEEKAAKEFIEWL (dAla at position 2 (a = dAla)) [SEQ ID NO 45]" reported_value="34 nM"
binder="HAEGTYTNDVTEYLEEKAAKEFIEWLIKGKPK [SEQ ID NO 40]" reported_value="0.12 nM"
binder="HAEGTYTNDVTEYLEEKAAKEFIEWL [SEQ ID NO 44]" reported_value="23 nM"
binder="HAEGTYTNDVTEYLEEAAKEFIEWLIKGKPKKIRYS (also called nmGLP-1 analog) [SEQ ID NO 30]" reported_value="> 1000 nM"
binder="HAEGTYTNDVTEYLEEKAAKEFIEWLI [SEQ ID NO 42]" reported_value="0.22 nM"
binder="EGTYTNDVTEYLEEKAAKEFIEWLIKGKPKKIRYS (also called nmGLP-1 analog) [SEQ ID NO 37]" reported_value="> 1000 nM"
binder="HGEGTYTNDVTEYLEEKAAKEFIEWLIKGKPKKIRYS (also called nmGLP-1 analog) [SEQ ID NO 26]" reported_value="0.16 nM"
binder="HAEGTYTNDVTYLEEKAAKEFIEWLIKGKPKKIRYS (also called nmGLP-1 analog) [SEQ ID NO 41]" reported_value="220 nM"
binder="HAEGTFTSDVTQQLDEKAAKEFIDWLINGGPSKEIIS-OH (also called nmGLP-1 peptide; naturally occurring nmGLP-1) [SEQ ID NO 1]" reported_value="7.7 nM"
binder="HADGTYTSDVSSYLQDQAAKDFITWLKSGQPKPDAVET (also called nmGLP-1 peptide; naturally occurring nmGLP-1) [SEQ ID NO 48]" reported_value="2.34 nM"
binder="HAEGTYTNDVTEYLEEKAAKEFIEWLIKGPKKIRYS (also called nmGLP-1 analog) [SEQ ID NO 36]" reported_value="0.086 nM"
binder="HAEGTYTNDVTEYLEKAAKEFIEWLIKGKPKKIRYS (also called nmGLP-1 analog) [SEQ ID NO 29]" reported_value="930 nM"
binder="HAEGTFTSDVTQQLDEKAAKEFIDWLINPGSEGIKSI (also called nmGLP-1 analog) [SEQ ID NO 14]" reported_value="2.2 nM"
binder="HXEGTYTNDVTEYLEEKAAKEFIEWLI (dAla at position 2 (a = dAla)) [SEQ ID NO 43]" reported_value="0.14 nM"
binder="HAEGTYTNDTEYLEEKAAKEFIEWLIKGKPKKIRYS (also called nmGLP-1 analog) [SEQ ID NO 39]" reported_value="> 1000 nM"
binder="HAEGTYTNDVTELEEKAAKEFIEWLIKGKPKKIRYS (also called nmGLP-1 analog) [SEQ ID NO 33]" reported_value="145 nM"
